Test system: Enterobacter cloacae
Assay: Antimicrobial activity against Enterobacter cloacae assessed as inhibition of microbial growth at 45 uM after 24 hrs
Assay type: functional, organism-based
Activity calls are given as the source filed them. No cut-off for these calls is given here.
Answer with one of the outcomes given here: active, inactive

Field: example entries. Status: answers known.
structure-smiles-string | qualitative-label
N=C1NC[C@H](CCCCN2C[C@@H](Cc3cccc4ccccc34)N(CCCCC3CCCCC3)C2=N)N1CCc1cccc(C(F)(F)F)c1 | active
CCCC[C@H]1CN(CCCC[C@H]2CNC(=N)N2CCC23CC4CC(CC(C4)C2)C3)C(=N)N1CCCCC1CCCCC1 | active
CCCC[C@H]1CN(CCCC[C@H]2CNC(=N)N2CCC23CC4CC(CC(C4)C2)C3)C(=N)N1CCc1ccc(-c2ccccc2)cc1 | active

Ask: Give the logged outcome of this assay for the following compound: CCCCCCCN1C(=N)N(CCCC[C@H]2CNC(=N)N2CCC23CC4CC(CC(C4)C2)C3)C[C@H]1Cc1cccc2ccccc12
Reply: active

Ask: Give the logged outcome of this assay for the following compound: N=C1NC[C@H](CCCCN2C[C@H](CC3CCCCC3)N(CCc3ccc(-c4ccccc4)cc3)C2=N)N1CCc1cccc(C(F)(F)F)c1
Reply: active

Ask: Give the logged outcome of this assay for the following compound: N=C1NC[C@H](CCCCN2C[C@H](CC3CCCCC3)N(CCCCC3CCCCC3)C2=N)N1CCCCC1CCCCC1
Reply: active

Ask: Give the logged outcome of this assay for the following compound: N=C1NC[C@H](CCCCN2C[C@H](CC3CCCCC3)N(CCCCC3CCCCC3)C2=N)N1CCC12CC3CC(CC(C3)C1)C2
Reply: active

Ask: Give the logged outcome of this assay for the following compound: CCCC[C@H]1CN(CCCC[C@H]2CNC(=N)N2CCc2cccc(C(F)(F)F)c2)C(=N)N1CCCCC1CCCCC1
Reply: active

Ask: Give the logged outcome of this assay for the following compound: CCCCCCCN1C(=N)N(CCCC[C@H]2CNC(=N)N2CCC23CC4CC(CC(C4)C2)C3)C[C@@H]1CC1CCCCC1
Reply: active

Ask: Give the logged outcome of this assay for the following compound: CCCCCCCN1C(=N)N(CCCC[C@H]2CNC(=N)N2CCCCC2CCCCC2)C[C@@H]1CC1CCCCC1
Reply: active

Ask: Give the logged outcome of this assay for the following compound: N=C1NC[C@H](CCCCN2C[C@@H](Cc3cccc4ccccc34)N(CCCCC3CCCCC3)C2=N)N1CCC12CC3CC(CC(C3)C1)C2
Reply: inactive

Ask: Give the logged outcome of this assay for the following compound: CCCCCCCN1C(=N)N(CCCC[C@H]2CNC(=N)N2CCc2cccc(C(F)(F)F)c2)C[C@@H]1CC1CCCCC1
Reply: active

Ask: Give the logged outcome of this assay for the following compound: CCCCCCCN1C(=N)N(CCCC[C@H]2CNC(=N)N2CCCCC2CCCCC2)C[C@@H]1CCCC
Reply: active

Ask: Give the logged outcome of this assay for the following compound: CCCC[C@H]1CN(CCCC[C@H]2CNC(=N)N2CCCCC2CCCCC2)C(=N)N1CCCCC1CCCCC1
Reply: active

Ask: Give the logged outcome of this assay for the following compound: N=C1NC[C@H](CCCCN2C[C@@H](Cc3cccc4ccccc34)N(CCc3ccc(-c4ccccc4)cc3)C2=N)N1CCCCC1CCCCC1
Reply: active
